Tested on: DU-145 prostate
method notes: NCI tumour cell line growth inhibition, 48 h
The following molecules are shown together with reported TGI values.

Look over these answered cases.
molecule	assay target	result
CC(C)[Si](OCC/C=C/C1CCC(=O)C1C(O)C1CCCCC1)(C(C)C)C(C)C (stereo unspecified)	DU-145 prostate	32 µM
Cc1ccc2nc(CN3CCCCC3)cc(=O)n2c1	DU-145 prostate	> 100 µM
O=C(Nc1nc(-c2ccc(Cl)cc2)cs1)c1ccc(O)c(O)c1	DU-145 prostate	15.9 µM

Qu. // map Cc1cc2c(cc1Cl)SC(NNC(=O)c1ccncc1)=NS2(=O)=O to recorded TGI (system: DU-145 prostate)
Ans. > 10 µM

Qu. What TGI appears in the records for this molecule with DU-145 prostate? CC(=O)NNc1nc(C)c(C(/C=C/c2ccccc2O)=N/NC(=O)c2ccncc2)s1
Ans. > 100 µM

Qu. # returns recorded TGI (system: DU-145 prostate) for O=C1NC(=O)[C@H]2C3C=CC([C@@H]12)[C@@H]1C(=O)NC(=O)[C@H]31
Ans. > 100 µM

Qu. What TGI appears in the records for this molecule with DU-145 prostate? CN=C1Nc2ccccc2C(=S)N2CSC[C@@H]12
Ans. > 100 µM

Qu. # returns recorded TGI (system: DU-145 prostate) for C=CCN1C(=O)N/C(=C\c2ccc(Cl)cc2)C1=O
Ans. > 100 µM
